Each recorded value in this set is attributed to ChEMBL document CHEMBL4321813.

test_target: Transient receptor potential cation channel subfamily V member 4 (Homo sapiens)
Sequence (Q9HBA0 whole entry): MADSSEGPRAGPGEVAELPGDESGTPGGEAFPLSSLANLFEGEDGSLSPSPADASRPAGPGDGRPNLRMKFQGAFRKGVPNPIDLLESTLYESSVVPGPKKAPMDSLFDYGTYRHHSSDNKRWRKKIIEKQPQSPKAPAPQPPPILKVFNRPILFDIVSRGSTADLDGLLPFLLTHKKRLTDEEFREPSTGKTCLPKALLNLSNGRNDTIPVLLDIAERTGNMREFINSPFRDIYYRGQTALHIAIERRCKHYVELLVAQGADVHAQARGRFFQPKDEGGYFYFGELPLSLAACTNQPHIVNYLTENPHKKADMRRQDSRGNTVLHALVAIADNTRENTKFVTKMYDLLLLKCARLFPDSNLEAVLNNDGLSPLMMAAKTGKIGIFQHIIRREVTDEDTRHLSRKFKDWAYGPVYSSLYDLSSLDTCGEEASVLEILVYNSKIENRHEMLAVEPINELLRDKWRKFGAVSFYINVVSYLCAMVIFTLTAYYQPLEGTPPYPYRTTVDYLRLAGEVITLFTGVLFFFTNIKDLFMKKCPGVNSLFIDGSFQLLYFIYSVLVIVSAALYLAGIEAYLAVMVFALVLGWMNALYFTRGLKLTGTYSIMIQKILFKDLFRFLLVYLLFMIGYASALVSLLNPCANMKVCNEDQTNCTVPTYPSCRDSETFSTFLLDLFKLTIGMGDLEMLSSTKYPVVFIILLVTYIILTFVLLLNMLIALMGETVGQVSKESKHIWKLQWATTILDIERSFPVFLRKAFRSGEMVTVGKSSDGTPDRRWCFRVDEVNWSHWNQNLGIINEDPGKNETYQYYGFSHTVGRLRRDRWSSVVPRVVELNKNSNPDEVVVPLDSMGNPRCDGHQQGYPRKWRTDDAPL
test_protocol: Antagonist activity at BacMam virus expressing human TRPV4 transduced in BHK/AC9 or HEK MSR2 cells assessed as inhibition of GSK634775-induced Ca2+ flux preincubated for 10 mins followed by agonist addition by Fluo-4 AM dye based FLIPR assay
Format: cell-based
result_type: pIC50
The value called pIC50 is obtained by taking minus log10 of the concentration in mol/L.

Worked cases, pIC50 given:
[
  {
    "molecule": "N#Cc1ccc(O[C@H]2CN(S(=O)(=O)c3ccc(Cl)cc3)C[C@@]2(O)CO)cc1F",
    "pIC50": 7.28
  },
  {
    "molecule": "N#Cc1ccc(O[C@H]2CN(S(=O)(=O)c3ccc(Cl)cn3)C[C@@]2(O)CN)cc1F",
    "pIC50": 7.92
  },
  {
    "molecule": "N#Cc1ccc(O[C@H]2CN(S(=O)(=O)c3ccc(Cl)cn3)C[C@]2(O)CO)cc1F",
    "pIC50": 6.72
  }
]

Briefly, pIC50 measured for `N#Cc1ccc(S(=O)(=O)[C@H]2CN(S(=O)(=O)c3ccc(Cl)cc3Cl)C[C@@]2(O)CO)cc1` : 8.10

Briefly, pIC50 measured for `N#Cc1ccc(S(=O)(=O)[C@H]2CN(S(=O)(=O)c3ccc(Cl)cn3)C[C@@]2(O)CO)cc1` : 5.42

Briefly, pIC50 measured for `N#Cc1ccc(O[C@H]2CN(S(=O)(=O)c3ccc(C(F)(F)F)cc3)C[C@@]2(O)CO)cc1F` : 7.00

Briefly, pIC50 measured for N#Cc1ccc(O[C@H]2CN(S(=O)(=O)c3ccc(Cl)cc3Cl)C[C@@]2(O)CN)cc1F (racemic) : 8.46

----------
test_protocol: Volume of distribution at steady state in Sprague-Dawley rat at 1 mg/kg, iv administered as 30 mins infusion or 1 to 2 mg/kg, po by HPLC-MS/MS analysis
Format: ADME, organism-based
condition_details: in vivo, read-out: Vdss
result_type: Vd (L/kg)
Write the number in L/kg without appending the unit.

Worked cases, Vd given:
[
  {
    "molecule": "N#Cc1ccc(O[C@H]2CN(S(=O)(=O)c3ccc(Cl)cc3Cl)C[C@@]2(O)CN)cc1F (racemic)",
    "result_type": "Vd",
    "uom": "L/kg",
    "number": 7.7
  },
  {
    "molecule": "N#Cc1ccc(O[C@H]2CN(S(=O)(=O)c3ccc(Cl)cn3)C[C@@]2(O)CO)cc1F",
    "result_type": "Vd",
    "uom": "L/kg",
    "number": 2.2
  },
  {
    "molecule": "N#Cc1ccc(O[C@H]2CN(S(=O)(=O)c3ccc(C(F)(F)F)cc3C#N)C[C@@]2(O)CO)cc1F",
    "result_type": "Vd",
    "uom": "L/kg",
    "number": 3.6
  },
  {
    "molecule": "N#Cc1ccc(O[C@H]2CN(S(=O)(=O)c3ccccc3C#N)C[C@@]2(O)CO)cc1F",
    "result_type": "Vd",
    "uom": "L/kg",
    "number": 0.9
  },
  {
    "molecule": "N#Cc1ccc(O[C@H]2CN(S(=O)(=O)c3ccc(Cl)cc3)C[C@@]2(O)CO)cc1F",
    "result_type": "Vd",
    "uom": "L/kg",
    "number": 6
  }
]

Briefly, Vd measured for N#Cc1ccc(O[C@H]2CN(S(=O)(=O)c3ccc(Cl)cc3Cl)CC2(O)CO)cc1F (single isomer, unassigned) : 13

Briefly, Vd measured for `N#Cc1ccc(O[C@H]2CN(S(=O)(=O)c3ccc(C(F)(F)F)cc3)C[C@@]2(O)CO)cc1F` : 5.9

Briefly, Vd measured for `N#Cc1ccc(O[C@H]2CN(S(=O)(=O)c3ccc(C(F)(F)F)nc3)C[C@@]2(O)CO)cc1F` : 4.1

Briefly, Vd measured for `N#Cc1ccc(O[C@H]2CN(S(=O)(=O)c3ccc(Cl)cc3Cl)C[C@@]2(O)CO)cc1F` : 3.2

Briefly, Vd measured for `N#Cc1ccc(O[C@H]2CN(S(=O)(=O)c3ccc(Cl)cn3)C[C@@]2(O)CN)cc1F` : 6.7

----------
test_protocol: MRT in Sprague-Dawley rat at 1 mg/kg, iv administered as 30 mins infusion by HPLC-MS/MS analysis
Type: ADME, organism-based
condition_details: in vivo
MRT values by entry
Returns: string containing the numeric result and its unit.

Worked cases, MRT given:
[
  {
    "molecule": "N#Cc1ccc(O[C@H]2CN(S(=O)(=O)c3ccc(Cl)cc3Cl)CC2(O)CO)cc1F (single isomer, unassigned)",
    "MRT": "4.8 h"
  },
  {
    "molecule": "N#Cc1ccc(O[C@H]2CN(S(=O)(=O)c3ccc(Cl)cn3)C[C@@]2(O)CN)cc1F",
    "MRT": "2.5 h"
  },
  {
    "molecule": "N#Cc1ccc(O[C@H]2CN(S(=O)(=O)c3ccc(Cl)cn3)C[C@@]2(O)CO)cc1F",
    "MRT": "1.2 h"
  },
  {
    "molecule": "N#Cc1ccc(O[C@H]2CN(S(=O)(=O)c3ccccc3C#N)C[C@@]2(O)CO)cc1F",
    "MRT": "0.4 h"
  },
  {
    "molecule": "N#Cc1ccc(O[C@H]2CN(S(=O)(=O)c3ccc(C(F)(F)F)nc3)C[C@@]2(O)CO)cc1F",
    "MRT": "2.3 h"
  },
  {
    "molecule": "N#Cc1ccc(O[C@H]2CN(S(=O)(=O)c3ccc(Cl)cc3Cl)C[C@@]2(O)CN)cc1F (racemic)",
    "MRT": "3.2 h"
  },
  {
    "molecule": "N#Cc1ccc(O[C@H]2CN(S(=O)(=O)c3ccc(Cl)cn3)C[C@]2(O)CO)cc1F",
    "MRT": "3.3 h"
  },
  {
    "molecule": "N#Cc1ccc(O[C@H]2CN(S(=O)(=O)c3ccc(Cl)cc3)C[C@@]2(O)CO)cc1F",
    "MRT": "1.9 h"
  }
]

Turning now to a further record.
Briefly, MRT measured for `N#Cc1ccc(O[C@H]2CN(S(=O)(=O)c3ccc(C(F)(F)F)cc3)C[C@@]2(O)CO)cc1F` : 2 h

----------
test_protocol: Solubility of the compound in FaSSIF measured after 4 hrs
Assay type: physicochemical
Rule: solubility at 4 h of 80 µg/mL or more gives T; anything lower gives F.

# example entries with known answers
[
  {
    "molecule": "N#Cc1ccc(S(=O)(=O)[C@H]2CN(S(=O)(=O)c3ccc(Cl)cn3)C[C@@]2(O)CO)cc1",
    "assigned_label": "T"
  },
  {
    "molecule": "N#Cc1ccc(O[C@H]2CN(S(=O)(=O)c3ccc(C(F)(F)F)cc3C#N)C[C@@]2(O)CO)cc1F",
    "assigned_label": "F"
  },
  {
    "molecule": "N#Cc1ccc(O[C@H]2CN(S(=O)(=O)c3ccc(Cl)cc3)C[C@@]2(O)CO)cc1F",
    "assigned_label": "F"
  },
  {
    "molecule": "N#Cc1ccc(O[C@H]2CN(S(=O)(=O)c3ccc(C(F)(F)F)nc3)C[C@@]2(O)CO)cc1F",
    "assigned_label": "T"
  },
  {
    "molecule": "N#Cc1ccc(O[C@H]2CN(S(=O)(=O)c3ccc(Cl)cc3Cl)C[C@@]2(O)CO)cc1F",
    "assigned_label": "F"
  },
  {
    "molecule": "N#Cc1ccc(O[C@H]2CN(S(=O)(=O)c3ccc(Cl)cn3)C[C@@]2(O)CN)cc1F",
    "assigned_label": "T"
  },
  {
    "molecule": "N#Cc1ccc(O[C@H]2CN(S(=O)(=O)c3ccc(Cl)cc3Cl)CC2(O)CO)cc1F (single isomer, unassigned)",
    "assigned_label": "T"
  },
  {
    "molecule": "N#Cc1ccc(S(=O)(=O)[C@H]2CN(S(=O)(=O)c3ccc(Cl)cc3Cl)C[C@@]2(O)CO)cc1",
    "assigned_label": "T"
  },
  {
    "molecule": "N#Cc1ccc(O[C@H]2CN(S(=O)(=O)c3ccc(C(F)(F)F)cc3)C[C@@]2(O)CO)cc1F",
    "assigned_label": "F"
  },
  {
    "molecule": "N#Cc1ccc(O[C@H]2CN(S(=O)(=O)c3ccccc3C#N)C[C@@]2(O)CO)cc1F",
    "assigned_label": "F"
  }
]

(Q) Say whether `N#Cc1ccc(O[C@H]2CN(S(=O)(=O)c3ccc(Cl)cn3)C[C@]2(O)CO)cc1F` shows solubility at 4 h of 80 µg/mL or more.
(A) T

(Q) Say whether `N#Cc1ccc(O[C@H]2CN(S(=O)(=O)c3ccc(Cl)cn3)C[C@@]2(O)CO)cc1F` shows solubility at 4 h of 80 µg/mL or more.
(A) F
